- Test system: MDA-MB-231
- procedure details: Growth inhibition of human MDA-MB-231 cells after 48 hrs by cell counting analysis
- Type: functional
- condition label: at 10 µM

substance smiles | growth inhibition (GI)
Cn1cc(NC(=O)c2cc(NC(=O)CNC(=N)N)cn2C)cc1C(=O)NCCC(=N)N | 23.4%
Cc1ccc(-c2csc(NC(=O)CN3CCN(c4ccccc4)CC3)n2)cc1 | <10%
Cc1ccc(-c2csc(NC(=O)CCN3CCN(c4ccccc4)CC3)n2)cc1 | <10%
O=C(CCN1CCN(c2ccccc2)CC1)Nc1nc(-c2ccc(Cl)cc2)cs1 | <10%
Cc1ccc(-c2csc(NC(=O)CCCl)n2)cc1 | 53.5%

###

- System: UACC-62
- procedure details: Growth inhibition of human UACC62 cells after 48 hrs by cell counting analysis
- Type: functional
- condition label: at 10 µM
observation type: growth inhibition (GI) (%)

compound | assay target | unit annotation | censoring operator | observed value
O=C(CCN1CCN(c2ccccc2)CC1)Nc1nc(-c2ccc(Cl)cc2)cs1 | UACC-62 | % | = | 20.5
CN1CCN(CCC(=O)Nc2nc(-c3ccc(Br)cc3)cs2)CC1 | UACC-62 | % | = | 71.6
CN1CCN(CCC(=O)Nc2nc(-c3ccc(Cl)cc3)cs2)CC1 | UACC-62 | % | = | 15
Cn1cc(NC(=O)c2cc(NC(=O)CNC(=N)N)cn2C)cc1C(=O)NCCC(=N)N [NETROPSIN] | UACC-62 | % | = | 29
O=C(CN1CCN(c2ccccc2)CC1)Nc1nc(-c2ccc(Cl)cc2)cs1 | UACC-62 | % | = | 20.3
O=C(CN1CCN(c2ccccc2)CC1)Nc1nc(-c2ccc(Br)cc2)cs1 | UACC-62 | % | = | 40.1
Cc1ccc(-c2csc(NC(=O)CN3CCN(C)CC3)n2)cc1 | UACC-62 | % | < | 10
Cc1ccc(-c2csc(NC(=O)CN3CCN(c4ccccc4)CC3)n2)cc1 | UACC-62 | % | = | 23.6
O=C(CCCl)Nc1nc(-c2ccc(Cl)cc2)cs1 | UACC-62 | % | = | 38.7
Cc1ccc(-c2csc(NC(=O)CCCl)n2)cc1 | UACC-62 | % | = | 41.8
Cc1ccc(-c2csc(NC(=O)CCN3CCN(c4ccccc4)CC3)n2)cc1 | UACC-62 | % | = | 16.3

###

- Tested on: SF-268
- procedure details: Growth inhibition of human SF268 cells after 48 hrs by cell counting analysis
- Format: functional
- condition label: at 10 µM
This section presents compounds with their documented growth inhibition (GI) values.

substance smiles | assay target | unit annotation | censoring operator | growth inhibition (GI)
O=C(CN1CCN(c2ccccc2)CC1)Nc1nc(-c2ccc(Br)cc2)cs1 | SF-268 | % | = | 17
Cc1ccc(-c2csc(NC(=O)CN3CCN(c4ccccc4)CC3)n2)cc1 | SF-268 | % | = | 13.9
O=C(CCN1CCN(c2ccccc2)CC1)Nc1nc(-c2ccc(Cl)cc2)cs1 | SF-268 | % | < | 10
Cc1ccc(-c2csc(NC(=O)CCN3CCN(c4ccccc4)CC3)n2)cc1 | SF-268 | % | < | 10
O=C(CN1CCN(c2ccccc2)CC1)Nc1nc(-c2ccc(Cl)cc2)cs1 | SF-268 | % | < | 10
CN1CCN(CCC(=O)Nc2nc(-c3ccc(Cl)cc3)cs2)CC1 | SF-268 | % | = | 14.2
Cc1ccc(-c2csc(NC(=O)CN3CCN(C)CC3)n2)cc1 | SF-268 | % | < | 10
Cc1ccc(-c2csc(NC(=O)CCCl)n2)cc1 | SF-268 | % | = | 46.3
O=C(CCCl)Nc1nc(-c2ccc(Cl)cc2)cs1 | SF-268 | % | = | 51.7
CN1CCN(CCC(=O)Nc2nc(-c3ccc(Br)cc3)cs2)CC1 | SF-268 | % | = | 12.8
Cn1cc(NC(=O)c2cc(NC(=O)CNC(=N)N)cn2C)cc1C(=O)NCCC(=N)N | SF-268 | % | < | 10

###

Quick reference for growth inhibition (GI) among some molecules
- Tested on: OVCAR-5
- procedure details: Growth inhibition of human OVCAR5 cells after 48 hrs by cell counting analysis
- Type: functional
- condition label: at 10 µM

molecule | growth inhibition (GI)
O=C(CCN1CCN(c2ccccc2)CC1)Nc1nc(-c2ccc(Cl)cc2)cs1 | <10%
O=C(CN1CCN(c2ccccc2)CC1)Nc1nc(-c2ccc(Br)cc2)cs1 | <10%
Cc1ccc(-c2csc(NC(=O)CN3CCN(c4ccccc4)CC3)n2)cc1 | <10%
O=C(CCCl)Nc1nc(-c2ccc(Cl)cc2)cs1 | 35.7%
O=C(CN1CCN(c2ccccc2)CC1)Nc1nc(-c2ccc(Cl)cc2)cs1 | <10%
CN1CCN(CCC(=O)Nc2nc(-c3ccc(Cl)cc3)cs2)CC1 | <10%
Cc1ccc(-c2csc(NC(=O)CCN3CCN(c4ccccc4)CC3)n2)cc1 | <10%
Cc1ccc(-c2csc(NC(=O)CCCl)n2)cc1 | 29.3%
Cn1cc(NC(=O)c2cc(NC(=O)CNC(=N)N)cn2C)cc1C(=O)NCCC(=N)N [NETROPSIN] | <10%
CN1CCN(CCC(=O)Nc2nc(-c3ccc(Br)cc3)cs2)CC1 | 15.6%
Cc1ccc(-c2csc(NC(=O)CN3CCN(C)CC3)n2)cc1 | <10%

###

- Tested on: OVCAR-8
- procedure details: Growth inhibition of human OVCAR8 cells after 48 hrs by cell counting analysis
- Assay type: functional
- condition label: at 10 µM
observation type: growth inhibition (GI)

substance smiles | observed value
O=C(CCN1CCN(c2ccccc2)CC1)Nc1nc(-c2ccc(Cl)cc2)cs1 | <10%
O=C(CN1CCN(c2ccccc2)CC1)Nc1nc(-c2ccc(Cl)cc2)cs1 | <10%
Cc1ccc(-c2csc(NC(=O)CN3CCN(c4ccccc4)CC3)n2)cc1 | <10%
Cc1ccc(-c2csc(NC(=O)CCN3CCN(c4ccccc4)CC3)n2)cc1 | <10%
Cc1ccc(-c2csc(NC(=O)CN3CCN(C)CC3)n2)cc1 | <10%
O=C(CN1CCN(c2ccccc2)CC1)Nc1nc(-c2ccc(Br)cc2)cs1 | 11.9%
CN1CCN(CCC(=O)Nc2nc(-c3ccc(Br)cc3)cs2)CC1 | <10%
O=C(CCCl)Nc1nc(-c2ccc(Cl)cc2)cs1 | 52.8%
Cc1ccc(-c2csc(NC(=O)CCCl)n2)cc1 | 60.6%
CN1CCN(CCC(=O)Nc2nc(-c3ccc(Cl)cc3)cs2)CC1 | 15.6%
Cn1cc(NC(=O)c2cc(NC(=O)CNC(=N)N)cn2C)cc1C(=O)NCCC(=N)N | <10%

###

- Tested on: LOX IMVI
- procedure details: Growth inhibition of human LOXIMVI cells after 48 hrs by cell counting analysis
- Assay type: functional
- condition label: at 10 µM
observation type: growth inhibition (GI)

molecule | observed value
Cn1cc(NC(=O)c2cc(NC(=O)CNC(=N)N)cn2C)cc1C(=O)NCCC(=N)N [NETROPSIN] | <10%
O=C(CN1CCN(c2ccccc2)CC1)Nc1nc(-c2ccc(Cl)cc2)cs1 | <10%
O=C(CCN1CCN(c2ccccc2)CC1)Nc1nc(-c2ccc(Cl)cc2)cs1 | <10%
O=C(CN1CCN(c2ccccc2)CC1)Nc1nc(-c2ccc(Br)cc2)cs1 | 11.6%
Cc1ccc(-c2csc(NC(=O)CCN3CCN(c4ccccc4)CC3)n2)cc1 | <10%
Cc1ccc(-c2csc(NC(=O)CN3CCN(C)CC3)n2)cc1 | <10%
Cc1ccc(-c2csc(NC(=O)CCCl)n2)cc1 | 45.1%
Cc1ccc(-c2csc(NC(=O)CN3CCN(c4ccccc4)CC3)n2)cc1 | 17.2%

###

- Tested on: IGROV-1
- procedure details: Growth inhibition of human IGROV1 cells after 48 hrs by cell counting analysis
- Format: functional
- condition label: at 10 µM
observation type: growth inhibition (GI) (%)

substance smiles | observation type | censoring operator | observed value
Cc1ccc(-c2csc(NC(=O)CN3CCN(C)CC3)n2)cc1 | growth inhibition (GI) | < | 10
Cc1ccc(-c2csc(NC(=O)CN3CCN(c4ccccc4)CC3)n2)cc1 | growth inhibition (GI) | = | 33.8
CN1CCN(CCC(=O)Nc2nc(-c3ccc(Br)cc3)cs2)CC1 | growth inhibition (GI) | = | 20.4
O=C(CCN1CCN(c2ccccc2)CC1)Nc1nc(-c2ccc(Cl)cc2)cs1 | growth inhibition (GI) | < | 10
Cn1cc(NC(=O)c2cc(NC(=O)CNC(=N)N)cn2C)cc1C(=O)NCCC(=N)N | growth inhibition (GI) | = | 17.4
Cc1ccc(-c2csc(NC(=O)CCCl)n2)cc1 | growth inhibition (GI) | = | 63.1
CN1CCN(CCC(=O)Nc2nc(-c3ccc(Cl)cc3)cs2)CC1 | growth inhibition (GI) | = | 18.4
Cc1ccc(-c2csc(NC(=O)CCN3CCN(c4ccccc4)CC3)n2)cc1 | growth inhibition (GI) | = | 14.9
